Where do the numbers come from? From ChEMBL document CHEMBL4118122.

experiment: Thermodynamic solubility of the compound in fasted state simulated intestinal […] after 2 to 5 days by UV-HPLC analysis; format: physicochemical; details: read-out: Therm_solubility
Items are presented alongside their recorded solubility thermodynamic.
measurement-kind: solubility thermodynamic (µM)

In [3]: df
Out[3]:
                                        mol  inequality_sign  meas_value
0  CC(C)(C)NS(=O)(=O)c1ccc(-c2sc(C(=O)N[C@H]3C[C@H](C(=O)O)C3)nc2CC2CCCCC2)c2ccccc12                >         400
1  CCC(C)(C)NS(=O)(=O)c1ccc(-c2sc(C(=O)N[C@H]3C[C@H](C(=O)O)C3)nc2CC2CCCCC2)c(Cl)c1C                =          59
2  CC(C)NS(=O)(=O)c1ccc(-c2sc(C(=O)N[C@H]3C[C@H](C(=O)O)C3)nc2CC2CCCCC2)c(C(F)F)c1Cl                >         400
3  CC(C)(C)NS(=O)(=O)c1ccc(-c2sc(C(=O)N3CC4(C3)CS(=O)(=O)C4)nc2CC2CCCCC2)c(Cl)c1Cl                <           4
4  CC(C)(C)NS(=O)(=O)c1ccc(-c2sc(C(=O)N[C@H]3C[C@H](C(=O)O)C3)nc2CC2CCCCC2)c(C(F)(F)F)c1                >         400
5  Cc1c(S(=O)(=O)NC(C)(C)C)ccc(-c2sc(C(=O)N[C@H]3C[C@H](C(=O)O)C3)nc2CC2CCCCC2)c1OC(F)F                =          50
6  CC(C)(C)NS(=O)(=O)c1ncc(-c2sc(C(=O)N[C@H]3C[C@H](C(=O)O)C3)nc2CC2CCCCC2)c2ccccc12                =         382
